# experimental system: Ileal Bile Acid Transporter Human (Homo sapiens, UniProt Q12908)
# Sequence (Q12908 1-348): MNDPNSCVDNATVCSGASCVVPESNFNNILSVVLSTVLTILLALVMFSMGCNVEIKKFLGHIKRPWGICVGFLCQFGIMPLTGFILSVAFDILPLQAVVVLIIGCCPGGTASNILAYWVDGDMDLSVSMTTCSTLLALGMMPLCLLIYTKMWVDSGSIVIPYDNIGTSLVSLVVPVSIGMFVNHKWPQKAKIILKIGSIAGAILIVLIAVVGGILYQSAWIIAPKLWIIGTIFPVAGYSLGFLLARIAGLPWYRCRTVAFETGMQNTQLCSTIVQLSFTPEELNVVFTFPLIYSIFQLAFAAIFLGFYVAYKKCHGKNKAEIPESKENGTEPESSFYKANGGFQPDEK
# experiment summary: ISBT Hu HEK Uptake SPA: Human HEK Glycocholic acid Uptake Radiometric SPA
# experimental setup: human IBAT in HEK cells
# Protocol: ISBT Hu HEK Uptake SPA 13203 IBAT HUM Ileal Bile Acid Transporter Human HEK Glycocholic acid Uptake Radiometric—SPA Inhibitor IC50 Mean IC50 (nM) was determined for the compounds of examples 1-14
endpoint name: IC50 (nM)

Known results for compounds:
CCCCC1(CCCC)CN(c2ccccc2)c2cc(SC)c(OCC(=O)N[C@@H](C(=O)N[C@@H](CC)C(=O)O)c3ccc(O)cc3)cc2S(=O)(=O)C1 | 0.15
CCCCC1(CCCC)CN(c2ccccc2)c2cc(SC)c(OCC(=O)N[C@@H](C(=O)N[C@@H](CC)C(=O)O)c3ccccc3)cc2S(=O)(=O)N1 | 0.18

1: CCCCC1(CCCC)CN(c2ccccc2)c2cc(SC)c(OCC(=O)N[C@@H](C(=O)N[C@H](C(=O)O)[C@@H](C)O)c3ccc(O)cc3)cc2S(=O)(=O)N1
2: CCCCC1(CCCC)CN(c2ccccc2)c2cc(SC)c(OCC(=O)N[C@@H](C(=O)N[C@@H](CC)C(=O)O)c3ccc(O)cc3)cc2S(=O)(=O)N1
3: CCCCC1(CCCC)CN(c2ccccc2)c2cc(SC)c(OCC(=O)N[C@@H](C(=O)NCC(=O)O)c3ccccc3)cc2S(=O)(=O)N1
4: CCCCC1(CCCC)CN(c2ccccc2)c2cc(SC)c(OCC(=O)N[C@@H](C(=O)NCC(=O)O)c3ccccc3)cc2S(=O)(=O)C1
5: CCCCC1(CCCC)CN(c2ccccc2)c2cc(SC)c(OCC(=O)N[C@@H](C(=O)N[C@@H](C)C(=O)O)c3ccc(O)cc3)cc2S(=O)(=O)N1
(Q) Order the entries by their reported IC50, beginning at the minimum. Write the labels out in the order the request specifies.
(A) 1, 2, 5, 3, 4
(1: 0.11 nM, 2: 0.16 nM, 5: 0.3 nM, 3: 0.45 nM, 4: 1.2 nM)

A: CCCCC1(CCCC)CN(c2ccccc2)c2cc(SC)c(OCC(=O)N[C@@H](C(=O)N[C@H](C(=O)O)C(C)C)c3ccccc3)cc2S(=O)(=O)N1
B: CCCCC1(CCCC)CN(c2ccccc2)c2cc(SC)c(OCC(=O)N[C@@H](C(=O)N[C@@H](C)C(=O)O)c3ccccc3)cc2S(=O)(=O)N1
(Q) Which shows the larger IC50 value: A or B ? Label of pick, please.
(A) A
(A: 0.36 nM, B: 0.2 nM)
